These measurements were taken from PubChem BioAssay (NCI).

Tested on: U251 CNS
Assay: NCI-60 one-dose screen, 48 h (100 = growth as untreated, 0 = no growth, -100 = all killed)
Conditions: 10 µM unless noted
About 83,000 compounds went through this panel and 20% of them were active in at least one assay; those are over-represented in the sample as a whole.
For each of the molecules below, state its growth.
Numbers only, in %.

Recorded results for 2 molecules are shown here.
COc1ccc(-c2nc(C#N)c(NCC(c3ccc(Cl)cc3)N3CCCCC3)o2)cc1 (stereo not given); 96
Cc1c(Cl)cccc1NC(=O)c1sc2nc3c(cc2c1N)CN(Cc1ccccc1)CC3; 31.9

Kindly give each listed record's growth.
1. COc1ccc2cc(/C=C3\N=C(c4cc(OC)c(OC)c(OC)c4)OC3=O)c(OC)nc2c1
2. NCCN1CCNCC1
3. O=C1CC23OC4ON=C(Br)C4C2C(O)c2ccccc2N13 (stereo not given)
4. COc1ccc(Nc2nc(SCC(C)C)nc(-c3ccc(F)cc3)c2C#N)cc1

**A:**
[92.8, 102, 110, 56.7]
